Biological target: T1, HLA-DRB4 (HLA-DRB4*01:01) (human)
T1 construct: mature; purified from homozygous EBV-transformed lymphoblastoid cells with antibody L243
Assay: competition ELISA vs biotin-E2/E168
No end group written: not given here.
measured_property: relative affinity

>  <binder>
HTLAKYLMELTMLDY-NH2 [CCNB1 320-334]

>  <recorded_result>
18

$$$$
>  <binder>
AKYLMELTMLDYDMV-NH2 [CCNB1 323-337]

>  <recorded_result>
7

$$$$
>  <binder>
MEMKILRALNFGLGR-NH2 [CCNB1 285-299]

>  <recorded_result>
18

$$$$
>  <binder>
ESLLPVMQHLAKNVV-NH2 [CCNB1 374-388]

>  <recorded_result>
424

$$$$
>  <binder>
AKISTLPQLNSALVQ-NH2 [CCNB1 410-424]

>  <recorded_result>
966

$$$$
>  <binder>
PQLNSALVQDLAKAV-NH2 [CCNB1 416-430]

>  <recorded_result>
1800

$$$$
